Reported CC50 at 48 h by item:
- Protocol notes: Cytotoxicity against human HPC cells after 48 hrs
- Format: cell-based
Could you give me the number in µM? Just the number is fine.

See these solved cases before continuing.
- Sample smiles: "Cc1c(C(=O)/C=C/c2ccccc2)[n+]([O-])c2ccccc2[n+]1[O-]"
  CC50 at 48 h, µM: 36
- Sample smiles: "Cc1c(C(=O)/C=C/c2ccc3c(c2)OCO3)[n+]([O-])c2ccccc2[n+]1[O-]"
  CC50 at 48 h, µM: 79

Turning now to a further compound:
Query block: Dear colleague, I am looking for the recorded CC50 at 48 h of the following compound: `COc1ccc(/C=C/C(=O)c2c(C)[n+]([O-])c3ccccc3[n+]2[O-])cc1OC`
Result block: 142

----------
- Tested system: ATP-dependent translocase ABCB1 (Homo sapiens, UniProt P08183)
- Sequence (P08183 whole entry): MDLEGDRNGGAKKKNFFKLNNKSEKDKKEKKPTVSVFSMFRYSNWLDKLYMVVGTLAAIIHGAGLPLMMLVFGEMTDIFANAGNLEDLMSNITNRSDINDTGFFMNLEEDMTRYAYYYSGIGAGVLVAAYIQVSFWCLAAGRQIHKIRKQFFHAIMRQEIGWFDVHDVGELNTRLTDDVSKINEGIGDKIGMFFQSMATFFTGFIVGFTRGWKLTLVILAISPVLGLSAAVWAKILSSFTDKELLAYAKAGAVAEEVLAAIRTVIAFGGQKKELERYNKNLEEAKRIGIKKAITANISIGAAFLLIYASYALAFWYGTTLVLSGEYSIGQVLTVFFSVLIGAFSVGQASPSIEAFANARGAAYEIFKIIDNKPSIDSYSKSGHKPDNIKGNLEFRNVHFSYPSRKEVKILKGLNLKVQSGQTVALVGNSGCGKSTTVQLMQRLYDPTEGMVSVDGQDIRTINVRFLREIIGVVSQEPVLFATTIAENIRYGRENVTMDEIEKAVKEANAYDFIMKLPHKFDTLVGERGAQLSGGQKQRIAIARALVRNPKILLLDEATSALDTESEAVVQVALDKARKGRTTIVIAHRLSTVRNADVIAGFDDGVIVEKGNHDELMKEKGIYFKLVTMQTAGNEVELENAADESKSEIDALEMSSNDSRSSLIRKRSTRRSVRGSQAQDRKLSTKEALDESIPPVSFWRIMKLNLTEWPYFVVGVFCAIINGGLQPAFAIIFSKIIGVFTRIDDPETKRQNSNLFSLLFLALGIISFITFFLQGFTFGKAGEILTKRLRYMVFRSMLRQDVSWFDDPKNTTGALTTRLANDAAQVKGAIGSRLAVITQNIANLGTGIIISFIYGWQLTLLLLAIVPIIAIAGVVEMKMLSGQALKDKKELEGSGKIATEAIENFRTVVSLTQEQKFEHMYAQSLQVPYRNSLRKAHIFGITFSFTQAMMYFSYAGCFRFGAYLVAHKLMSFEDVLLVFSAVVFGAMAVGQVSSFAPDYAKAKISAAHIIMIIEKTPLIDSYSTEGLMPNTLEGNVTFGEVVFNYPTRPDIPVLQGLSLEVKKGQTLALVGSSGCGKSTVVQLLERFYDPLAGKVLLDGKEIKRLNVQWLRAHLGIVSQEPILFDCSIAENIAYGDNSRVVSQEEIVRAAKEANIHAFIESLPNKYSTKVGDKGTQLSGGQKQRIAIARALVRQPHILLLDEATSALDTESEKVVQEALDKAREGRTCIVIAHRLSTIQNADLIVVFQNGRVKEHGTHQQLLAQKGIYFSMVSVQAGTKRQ
- Protocol notes: Reversal of P-glycoprotein-mediated multidrug resistance in human MDR1 gene transfected mouse L5178Y cells assessed as fluorescence activity ratio at 200 uM by rhodamine 123 accumulation assay
- Format: cell-based
Measurement label: Ratio

Known Ratio results, listed for orientation:
- Sample smiles: "Cc1c(C(=O)/C=C/c2ccc(Br)cc2)[n+]([O-])c2ccccc2[n+]1[O-]"
  Measurement label: "Ratio"
  Result: 2.81
- Sample smiles: "Cc1c(C(=O)/C=C/c2ccc([N+](=O)[O-])cc2)[n+]([O-])c2ccccc2[n+]1[O-]"
  Measurement label: "Ratio"
  Result: 2.25
- Sample smiles: "COc1ccc(/C=C/C(=O)c2c(C)[n+]([O-])c3ccccc3[n+]2[O-])cc1"
  Measurement label: "Ratio"
  Result: 31.7
- Sample smiles: "Cc1c(C(=O)/C=C/c2ccc(Cl)cc2)[n+]([O-])c2ccccc2[n+]1[O-]"
  Measurement label: "Ratio"
  Result: 5.97

# ---- query molecule ----
Query block: What Ratio appears in the records for this molecule with ATP-dependent translocase ABCB1 (Homo sapiens, UniProt P08183)? `COc1cc(/C=C/C(=O)c2c(C)[n+]([O-])c3ccccc3[n+]2[O-])cc(OC)c1OC`
Result block: 41.9

----------
- Tested system: UniProtKB P08183
- Protocol notes: Reversal of P-glycoprotein-mediated multidrug resistance in human MDR1 gene transfected mouse L5178Y cells assessed as fluorescence activity ratio at 20 uM by rhodamine 123 accumulation assay
- Format: cell-based
Measured Ratio, listed per entry.

Consider the reported Ratio for these molecules:
- Sample smiles: "Cc1c(C(=O)/C=C/c2ccc(Cl)cc2)[n+]([O-])c2ccccc2[n+]1[O-]"
  Ratio: 2.63
- Sample smiles: "Cc1c(C(=O)/C=C/c2ccc(Cl)c(Cl)c2)[n+]([O-])c2ccccc2[n+]1[O-]"
  Ratio: 4.42
- Sample smiles: "COc1cc(/C=C/C(=O)c2c(C)[n+]([O-])c3ccccc3[n+]2[O-])cc(OC)c1OC"
  Ratio: 8.15
- Sample smiles: "Cc1c(C(=O)/C=C/c2ccccc2)[n+]([O-])c2ccccc2[n+]1[O-]"
  Ratio: 10.9
- Sample smiles: "Cc1ccc(/C=C/C(=O)c2c(C)[n+]([O-])c3ccccc3[n+]2[O-])cc1"
  Ratio: 9.79
- Sample smiles: "Cc1c(C(=O)/C=C/c2ccc(F)cc2)[n+]([O-])c2ccccc2[n+]1[O-]"
  Ratio: 4.81
- Sample smiles: "Cc1c(C(=O)/C=C/c2cccc([N+](=O)[O-])c2)[n+]([O-])c2ccccc2[n+]1[O-]"
  Ratio: 1.89
- Sample smiles: "CC(=O)c1c(C)[n+]([O-])c2ccccc2[n+]1[O-]"
  Ratio: 1.06

Query block: If you can, please state the reported Ratio value of `Cc1c(C(=O)/C=C/c2ccc([N+](=O)[O-])cc2)[n+]([O-])c2ccccc2[n+]1[O-]` .
Result block: 1.28

Query block: Query: Ratio; subject: `Cc1c(C(=O)/C=C/c2ccc(Br)cc2)[n+]([O-])c2ccccc2[n+]1[O-]`
Result block: 2.03

Query block: Requested field: Ratio. Item: `COc1ccc(/C=C/C(=O)c2c(C)[n+]([O-])c3ccccc3[n+]2[O-])cc1`
Result block: 4.25

Query block: Which measured Ratio value corresponds to `COc1ccc(/C=C/C(=O)c2c(C)[n+]([O-])c3ccccc3[n+]2[O-])cc1OC` ?
Result block: 5.01

Query block: Which Ratio is listed for `Cc1c(C(=O)/C=C/c2ccc3c(c2)OCO3)[n+]([O-])c2ccccc2[n+]1[O-]` ?
Result block: 1.58
